test: Cytotoxic activity by flow cytometry with 7-AAD staining, HEK293; assay type: cell-based; settings: human
The entries below come with measured IC50 at 24 h values attached.
Your reply should be a number followed by the unit it is expressed in.

chem_smiles=Cc1n[nH]c(C)c1CSCc1ccccc1 value_observed="2.98 µM"
chem_smiles=Cc1n[nH]c(C)c1CSC1CCCCC1 value_observed="3.15 µM"
chem_smiles=Cc1n[nH]c(C)c1CSc1ccc(O)cc1 value_observed="3.34 µM"

Now for a further molecule.
### Prompt Item under review: Cc1n[nH]c(C)c1CSc1ccccc1 . Reported IC50 at 24 h?
### Response 3.8 µM
